assay: Human HepG2 cell viability assay in 384 well format; type: toxicity, cell-based; parameters: dose 125 nL, time 70.5 hour; concentration not given beside the values; conditions: HepG2 cells, read-out: Inhibition
// reported cytotoxicity at 70.5 h per item
READOUT_LABEL: cytotoxicity at 70.5 h (%)

compound="COCC1CN(C(=O)c2cccn2C)Cc2ncnn2C1 (centres undefined)" observed_result=-3.03
compound=CCN(Cc1nc2c(cnn2C)c(=O)[nH]1)c1ccc(OC)c(OC)c1 observed_result=-7.15
compound=CCC[C@H]1CN(C(=O)CCn2ccccc2=O)C[C@@H]1NS(C)(=O)=O observed_result=-16.2
compound=CCN(Cc1cnn(C)c1)C[C@H]1CC[C@@H](Cc2ccc(C)nc2)O1 observed_result=-16.5
compound=COc1cc2c(cc1OC)S(=O)(=O)N(Cc1ccccc1C)C2=O observed_result=23.7
compound=COc1ccc(C(=O)N(CCO)Cc2ccccc2)c(OC)n1 observed_result=21.2
compound="COC(=O)CC(NC(=O)c1cccc(N2CCCC2=O)c1)C(=O)OC (centres undefined)" observed_result=0.259
compound=CCCc1cc(C(=O)Nc2nc(SC)ns2)n(C)n1 observed_result=-13.2
compound="CC(NC(=O)N1CCN(c2nccs2)CC1)c1nncn1C (centres undefined)" observed_result=-7.23
compound="Cc1cnc(N2CCOC3(CCCN(C)C3)C2)nc1 (centres undefined)" observed_result=-10.1
compound=O=C(Nc1cccnc1)[C@H]1CN(Cc2nccs2)C[C@H]2OCC[C@@H]12 observed_result=35.5
compound=COCC(=O)N1CC2(CCN(c3ccccc3)C2)C1 observed_result=-5.97
compound="N#CC1(c2ccccc2)CCN(C(=O)C2CCCN(C(N)=O)C2)CC1 (centres undefined)" observed_result=43.9
compound=CCC(CC)NC(=O)Cn1nc(C)nc1-c1ccccc1 observed_result=-6.22
compound=Cc1cc(OC(F)F)c(C(=O)N2CCC(N(C)C)CC2)s1 observed_result=31.3
compound=CCOC(=O)[C@]12CCCN(Cc3cccs3)C[C@H]1CN(C(C)=O)C2 observed_result=-1.84
compound=Cc1ncc2c(n1)CN(CC(=O)Nc1ccncc1)CC2 observed_result=1.41
compound=CC(C)N1CCC2(CC1)C(=O)N(c1cccnc1)c1c(F)cccc12 observed_result=-2.98
compound=Cc1cc(-c2cnc(C(C)C)nc2CN(C)C(=O)c2ccccn2)on1 observed_result=-6.43
compound=Cn1c(NCCN2CCCCCC2)c(C#N)c(=O)n(C)c1=O observed_result=-7.25
compound=CCc1cnc(NCc2nc(CSC)no2)nc1 observed_result=10.1
compound="O=S(=O)(N(Cc1ccccn1)C1CC1)N1CCCC1c1ccco1 (centres undefined)" observed_result=-8.96
compound=O=C(C1CC1)N1CC2(CCN(CC3CC3)CC2)c2cc(F)ccc21 observed_result=25.9
compound=COCCNc1cc(-c2ccccc2S(N)(=O)=O)c2cc[nH]c2n1 observed_result=-7.36

----------
assay: Human HepG2 cell viability assay in 384 well format; assay type: toxicity, cell-based; design: dose 125 nL, time 70.5 hour; concentration not given beside the values; conditions: HepG2 cells, read-out: Inhibition
// reported cytotoxicity at 70.5 h per item
READOUT_LABEL: cytotoxicity at 70.5 h (%)

compound="CC(NC(=O)C1=NN(C)C(=O)CC1)c1ccc(Cl)cc1 (stereo unspecified)" observed_result=-110
compound=O=C(Nc1cccc(OCC(F)F)n1)c1ccncc1 observed_result=-8.53
compound="COC(=O)CCCC(=O)N1CCCCC1c1ccc(F)cc1 (stereo unspecified)" observed_result=2.01
compound="O=C(CN1CCN(CC(O)C2CC2)CC1)NCc1ccc(F)cc1 (stereo unspecified)" observed_result=-0.525
compound=CCCNc1ccc(C(=O)NCCc2cccc(Cl)c2)cn1 observed_result=-4.77
compound=Cc1csc2ncc(-c3ccnc(N4CCC[C@@H]4CO)n3)c(=O)n12 observed_result=-2.68
compound=Cn1ccnc1-c1cccc(NC(=O)NCCCN2CCOCC2)c1 observed_result=-2.94
compound=c1ccc(-c2nnc(CN3C[C@@H]4CC[C@H](C3)N(CC3CCC3)C4)o2)cc1 observed_result=18.8
compound=Cc1ccc(-c2nc(CN3CC(n4nc(C)cc4C)C3)no2)cc1 observed_result=-8.79
compound=COCCC(=O)N1CCCN(Cc2nccn2C(C)C)CC1 observed_result=-1.06
compound="CN(Cc1ccccc1)CC(O)Cn1cnc2ccc(Br)cc2c1=O (stereo unspecified)" observed_result=-5.18
